- Tested system: human P2X2/3 receptor (Homo sapiens (Human), UniProt P56373+Q9UBL9)
- Sequence (P56373 whole entry): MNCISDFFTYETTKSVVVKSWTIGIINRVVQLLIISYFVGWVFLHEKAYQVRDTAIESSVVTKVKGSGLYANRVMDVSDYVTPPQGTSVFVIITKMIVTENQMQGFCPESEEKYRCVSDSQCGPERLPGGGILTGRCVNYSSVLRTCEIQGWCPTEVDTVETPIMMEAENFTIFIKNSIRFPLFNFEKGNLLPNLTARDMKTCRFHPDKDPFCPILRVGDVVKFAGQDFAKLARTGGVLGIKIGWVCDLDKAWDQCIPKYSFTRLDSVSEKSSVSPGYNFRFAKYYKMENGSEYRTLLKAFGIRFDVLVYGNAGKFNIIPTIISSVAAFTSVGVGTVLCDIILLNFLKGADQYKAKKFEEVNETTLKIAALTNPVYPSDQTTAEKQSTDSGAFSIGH
- Sequence (Q9UBL9 whole entry): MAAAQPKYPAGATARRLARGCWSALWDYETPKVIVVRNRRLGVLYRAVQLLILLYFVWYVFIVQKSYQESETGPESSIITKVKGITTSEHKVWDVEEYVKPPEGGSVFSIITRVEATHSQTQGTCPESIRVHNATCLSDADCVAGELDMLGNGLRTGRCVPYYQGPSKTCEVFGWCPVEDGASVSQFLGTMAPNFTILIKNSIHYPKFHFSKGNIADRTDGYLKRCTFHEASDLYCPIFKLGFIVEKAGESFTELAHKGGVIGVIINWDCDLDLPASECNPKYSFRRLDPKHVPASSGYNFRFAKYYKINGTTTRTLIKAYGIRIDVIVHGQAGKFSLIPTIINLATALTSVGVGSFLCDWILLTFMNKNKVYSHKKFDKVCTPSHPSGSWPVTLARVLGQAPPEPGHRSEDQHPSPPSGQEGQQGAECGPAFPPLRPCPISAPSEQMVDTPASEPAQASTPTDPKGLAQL
- Assay explanation: Intracellular calcium measurement (FLIPR, Fluo-4) of antagonist activity at human P2X2/3 receptors
- Type: cell-based
- Measurement conditions: human P2X2/3, FLIPR calcium assay, agonist α,β-Me-ATP; read-out: hP2X2/3 IC50
pIC50: −log10 of the molar value.
Decide using pIC50: a value greater than or equal to 6 is T, a smaller one is F.

| Compound | Category |
| --- | --- |
| C#CCOc1cc(C(=O)NCc2ccc(C)nn2)cc(-c2ncc(C)s2)c1 [Example 31] | F |
| CC(C)c1cnc(-c2cc(OC[C@H]3CCCO3)cc(C(=O)N[C@H](C)c3ccc(C(F)(F)F)nn3)c2)s1 [Example 299] | T |
| Cc1cnc(CNC(=O)c2cc(O[C@@H]3CCOC3)cc(-c3ncc(C)s3)c2)cn1 [Example 12] | F |
| Cc1cnc(-c2cc(O[C@H]3CCOC3)cc(C(=O)NC(C)c3ncc(F)cc3Cl)c2)s1 (some centres unmarked) [Example 132] | F |
| Cc1ccc(CNC(=O)c2cc(OC3CCN(CC(F)F)CC3)cc(-c3ncc(C)s3)c2)nn1 [Example 307] | T |
